Test system: tyrosinase from mushroom
Test: Inhibition of commercial mushroom tyrosinase (L-DOPA or L-tyrosine substrate)
Format: biochemical
Settings: L-tyrosine
Procedure: The following substrates were used for the enzymatic reaction: L-tyrosine and L-3,4-dihyroxyphenylalanine (L-DOPA). Both substrates were used in independent experiments. […] After a 25-minute incubation, the absorbance was measured at 475 nm using a microplate reader. The percentage of inhibition of tyrosinase activity was calculated using the formula: [(AC -AT)/AC] × 100, where AC - is the absorbance of the negative control, AT - is the absorbance of the sample containing the tested compound.
MEASUREMENT NAME: Tyrosinase inhibition with L-tyrosine [%]

Ask: Request the reported Tyrosinase inhibition with L-tyrosine [%] associated with CC(C)C(CO)NC(=O)/C=C/c1ccc(Cl)cc1 (stereo not shown)
Reply: 57.62±2.11% (500 µM)

Ask: Note, next up: CCC(CO)NC(=O)/C=C/c1ccc(C)cc1 (stereo not shown)
Reply: 15.31±8.27% (500 µM)

Ask: Note, next up: CCC(O)CNC(=O)/C=C/c1ccc(C)cc1 (stereo not shown)
Reply: 30.22±10.22% (500 µM)

Ask: Note, next up: CC(CO)NC(=O)/C=C/c1ccc(Cl)cc1 (stereo not shown)
Reply: 75.45±1.80% (500 µM)

Ask: Note, next up: O=C(/C=C/c1ccccc1)NCCCO
Reply: 27.41±2.24% (500 µM)

Ask: Note, next up: O=C(/C=C/c1ccc(Cl)cc1Cl)NCCCO
Reply: 17.87±7.36% (500 µM)

Ask: Note, next up: O=C(/C=C/c1ccccc1)NCCCCCO
Reply: 58.56±4.58% (500 µM)
